Task for the reader: assign each of the following compounds its reported chromatographic logP.
Assay name: log P by HPLC on reversed-phase columns (C 18), EEC directive 79/831 Annex V.A8
Format: physicochemical
Measurement parameters: reversed-phase C18 HPLC column, pH 7.8, method [b]; read-out: logP[b]
Answers are plain numbers.

Cc1cc(F)c(-n2c(C(F)(F)F)nc3c(cnn3C)c2=O)cc1SCC(F)(F)F	3.94
Cc1cc(F)c(-n2c(C)nc3c(cnn3C)c2=O)cc1SCC(F)(F)F	2.79

Below are some compounds; for each one, tell me its chromatographic logP.
1. Cc1ccc(-n2cnc3sccc3c2=O)cc1[S+]([O-])CC(F)(F)F (stereo not shown)
2. Cc1cc(F)c(-n2cnc3c(cnn3C)c2=O)cc1SCC(F)(F)F

RESULT:
[1.93, 2.65]

* * *

Assay name: log P by HPLC on reversed-phase columns (C 18), EEC directive 79/831 Annex V.A8
Format: physicochemical
Measurement parameters: reversed-phase C18 HPLC column, pH 7.8, neutral range, pH 7.8, 0.001 molar aqueous ammonium bicarbonate / acetonitrile; read-out: log P[b]
What chromatographic logP was measured for each of the following?
Answers are plain numbers.

Known chromatographic logP results, listed for orientation:
Cc1cc(F)c(-n2c(C)nc3c(cnn3C)c2=O)cc1SCC(F)(F)F	2.79
Nc1cc(SCC(F)(F)F)ccc1Cl	2.95
Cc1cc(F)c(-n2cnc3c(cnn3C)c2=O)cc1SCC(F)(F)F	2.65
Cc1cc(F)c(-n2cnc3c(cnn3C)c2=O)cc1[S+]([O-])CC(F)(F)F (stereo not shown)	1.69
Nc1cc(SSc2ccc(F)c(N)c2)ccc1F	2.97
FC(F)(F)CSc1cc(Br)c(Cl)cc1Cl	4.77
Nc1ccc(Cl)c(SCC(F)(F)F)c1	2.69
Cc1cc(F)c(Br)cc1SCC(F)(F)F	4.34

// each listed compound needs a value for chromatographic logP
1. COc1ccc(Br)cc1SCC(F)(F)F
2. Cc1cc(F)c(B(O)O)cc1[S+]([O-])CC(F)(F)F (stereo not shown)

RESULT:
1. 3.81
2. 1.11

* * *

Assay name: log P by HPLC on reversed-phase columns (C 18), EEC directive 79/831 Annex V.A8
Format: physicochemical
Measurement parameters: method [a]
For each entry below, report its logP[a] value.

Cc1ccc(-n2cnc3c(cnn3C)c2=O)cc1SCC(F)(F)F	2.56
Cc1cc(F)c(-n2cnc3ncsc3c2=O)cc1SCC(F)(F)F	2.51
Cn1cnc2c(=O)n(-c3cc(SCC(F)(F)F)c(Cl)cc3F)cnc21	2.19
Cc1ccc(-n2cnc3ccsc3c2=O)cc1SCC(F)(F)F	2.87
Cc1cc(F)c(-n2c(C)nc3cnn(C)c3c2=O)cc1SCC(F)(F)F	2.94

List the reported logP[a] of each compound below.
1. Cn1ncc2c(=O)n(-c3ccc(C#N)c(SCC(F)(F)F)c3)cnc21
2. COc1ccc(-n2cnc3sccc3c2=O)cc1SCC(F)(F)F
3. O=c1c2ccsc2ncn1-c1ccc(Cl)c([S+]([O-])CC(F)(F)F)c1 (stereo not drawn)
4. Cn1ncc2c(=O)n(-c3ccc(Cl)c([S+]([O-])CC(F)(F)F)c3)cnc21 (racemic)

RESULT:
1. 2.07
2. 2.75
3. 2.20
4. 1.80

* * *

For each record, write down the corresponding logP[b].
Assay name: log P by HPLC on reversed-phase columns (C 18), EEC directive 79/831 Annex V.A8
Type: physicochemical
Measurement parameters: method [b]
Give bare numbers.

Here is how some compounds turned out for logP[b].
Cc1cc(C)c([S+]([O-])CC(F)(F)F)cc1-n1c(C)nc2c(cnn2C)c1=O (racemic)	1.84
Cc1cc(F)c(-n2cnc3c(cnn3CC(F)(F)F)c2=O)cc1SCC(F)(F)F	3.21
Cc1nc2c(=O)n(-c3cc([S+]([O-])CC(F)(F)F)c(C)cc3F)cnc2s1 (centres unmarked)	1.77
Cc1cc(F)c(-n2cnc3ccsc3c2=O)cc1SCC(F)(F)F [Compound 109]	3.42
Cc1cc(F)c(-n2cnc3cnn(C)c3c2=O)cc1SCC(F)(F)F	2.76
Cc1cc(F)c(-n2c(C)nc3scnc3c2=O)cc1[S+]([O-])CC(F)(F)F (centres unmarked)	1.70

Batch of 2 compounds: report logP[b] for each.
1. CCn1cnc2c(=O)n(-c3cc([S+]([O-])CC(F)(F)F)c(C)cc3F)cnc21 (racemic)
2. O=c1c2ccsc2ncn1-c1ccc(C(F)(F)F)c([S+]([O-])CC(F)(F)F)c1 (centres unmarked)

RESULT:
1. 1.59
2. 2.51

* * *

Assay name: log P by HPLC on reversed-phase columns (C 18), EEC directive 79/831 Annex V.A8
Assay type: physicochemical
Measurement parameters: pH 7.8, log P[b]
Measurement name: chromatographic logP
Answers are plain numbers.

chromatographic logP in this record for O=[N+]([O-])c1cc(SSc2ccc(Cl)c([N+](=O)[O-])c2)ccc1Cl [XIX-4] : 4.58

* * *

Assay name: log P by HPLC on reversed-phase columns (C 18), EEC directive 79/831 Annex V.A8
Assay type: physicochemical
Measurement parameters: pH 2.7, log P[a]
Measurement name: chromatographic logP
Answers are plain numbers.

The measured chromatographic logP associated with `O=[N+]([O-])c1cc(SSc2ccc(Cl)c([N+](=O)[O-])c2)ccc1Cl` reads 4.58

* * *

Assay name: log P by HPLC on reversed-phase columns (C 18), EEC directive 79/831 Annex V.A8
Assay type: physicochemical
Measurement parameters: method [b]
Measurement name: logP[b]

Cc1ccc(-n2cnc3ccsc3c2=O)cc1[S+]([O-])CC(F)(F)F (stereo not drawn) [Compound 101]	1.81
Cc1cc(F)c(-n2cnc3ncsc3c2=O)cc1SCC(F)(F)F [Compound 78]	2.48
O=c1c2sccc2ncn1-c1ccc(Cl)c([S+]([O-])CC(F)(F)F)c1 (stereo not drawn) [Compound 106]	2.03
O=c1c2ncsc2ncn1-c1cc([S+]([O-])CC(F)(F)F)c(Cl)cc1Cl (stereo not drawn) [Compound 67]	1.96
Cc1cc(F)c(-n2cnc3c(cnn3CC(F)(F)F)c2=O)cc1[S+]([O-])CC(F)(F)F (racemic) [Compound 18]	2.33

The molecule Cc1cc(C)c(-n2cnc3ncsc3c2=O)cc1SCC(F)(F)F [Compound 76] showed logP[b] equal to 2.59

* * *

Assay name: log P by HPLC on reversed-phase columns (C 18), EEC directive 79/831 Annex V.A8
Type: physicochemical
Measurement parameters: method [a]
Note to self: logP[a] under 3 means 1 (yes), ties and anything higher get 0 (no).

Past entries and their recorded results:
Cn1ncc2c(=O)n(-c3cc([S+]([O-])CC(F)(F)F)c(Cl)cc3Cl)cnc21 (racemic)	1 (yes)
Cc1cc(F)c(-n2c(C)nc3scnc3c2=O)cc1SCC(F)(F)F	1 (yes)

QUERY: Identify whether the molecule Cc1cc(C)c([S+]([O-])CC(F)(F)F)cc1-n1c(C)nc2c(cnn2C)c1=O (racemic) records logP[a] below 3.
RESULT: 1 (yes)

QUERY: # strict comparison: is reported logP[a] < 3? input = Cc1cc(F)c(-n2c(C)nc3c(cnn3CC(F)(F)F)c2=O)cc1[S+]([O-])CC(F)(F)F (racemic)
RESULT: 1 (yes)

QUERY: Field: below-cutoff. Rule: recorded logP[a] strictly less than 3. Subject: O=c1c2ccsc2ncn1-c1cc([S+]([O-])CC(F)(F)F)c(Cl)cc1Cl (stereo not shown)
RESULT: 1 (yes)

QUERY: Field: below-cutoff. Rule: recorded logP[a] strictly less than 3. Subject: Cc1cc(F)c(-n2cnc3sccc3c2=O)cc1[S+]([O-])CC(F)(F)F (stereo not shown)
RESULT: 1 (yes)

QUERY: logP[a] strictly < 3 for this molecule? `Cc1cc(C)c(-n2c(C(F)(F)F)nc3c(cnn3C)c2=O)cc1SCC(F)(F)F`
RESULT: 0 (no)

* * *

Assay name: log P by HPLC on reversed-phase columns (C 18), EEC directive 79/831 Annex V.A8
Format: physicochemical
Measurement parameters: method [a]
Measurement name: logP[a]
Answers are plain numbers.

Cc1c2c(=O)n(-c3ccc(C#N)c(SCC(F)(F)F)c3)cnc2nn1C	1.99

Here are 2 compounds. What values of logP[a] were reported for them?
1. Cc1nc2c(cnn2C)c(=O)n1-c1cc(SCC(F)(F)F)c(Cl)cc1Cl
2. Cc1nn(C)c2ncn(-c3ccc(C#N)c([S+]([O-])CC(F)(F)F)c3)c(=O)c12 (stereo not shown)

RESULT:
3.18
1.74

GET /value?item= Cc1c2c(=O)n(-c3ccc(Cl)c([S+]([O-])CC(F)(F)F)c3)cnc2nn1C (racemic) &field=logP[a] returns 1.78

* * *

Assay name: log P by HPLC on reversed-phase columns (C 18), EEC directive 79/831 Annex V.A8
Type: physicochemical
Measurement parameters: acidic range, pH 2.7, 0.1% aqueous formic acid / acetonitrile; read-out: log P[a]
Measurement name: chromatographic logP
Numbers only.

O=[N+]([O-])c1cc(SSc2ccc(F)c([N+](=O)[O-])c2)ccc1F	3.83

Hey, can you go through the list below and give me chromatographic logP for every item?
1. O=C(Nc1ccc(Cl)cc1F)C(F)(F)F
2. O=[N+]([O-])c1ccc(Cl)c(SSc2cc([N+](=O)[O-])ccc2Cl)c1
3. O=[N+]([O-])c1cc(SSc2cc([N+](=O)[O-])c(Cl)cc2Cl)c(Cl)cc1Cl

RESULT:
[2.53, 5.03, 5.69]
